# Assayed Target: T1, ADI-74968
# T1 construct: pH-dependent anti-CD3 antibody made in CHO cells
# T1 sequence (VH, as listed by the source, chain 1 of 2): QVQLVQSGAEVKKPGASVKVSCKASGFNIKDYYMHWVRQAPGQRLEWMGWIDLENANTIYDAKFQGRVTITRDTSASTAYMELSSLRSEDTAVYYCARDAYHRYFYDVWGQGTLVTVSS
# T1 sequence (VL, as listed by the source, chain 2 of 2): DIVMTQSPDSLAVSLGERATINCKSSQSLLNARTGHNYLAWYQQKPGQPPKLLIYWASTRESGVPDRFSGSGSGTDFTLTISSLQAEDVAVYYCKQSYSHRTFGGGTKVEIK
# Assay: SPR Carterra avidity, yeast anti-ID
Measured Metric: pKd
Give only the number. pKd is defined as minus log10 of concentration in molar units.

Binder	pKd
ADI-30242 (antibody, V domains shown, anti-ID IgG) VH: QVQLVQSGAEVKKPGSSVKVSCKASGGTFSSYAISWVRQAPGQGLEWMGGIIPIFGTANYAQKFQGRVTITADESTSTAYMELSSLRSEDTAVYYCARGAPNYYGSGGYDDGWFDPWGQGTLVTVSS VL: EIVLTQSPGTLSLSPGERATLSCRASQSVSSSYLAWYQQKPGQAPRLLIYGASSRATGIPDRFSGSGSGTDFTLTISRLEPEDFAVYYCQQFGRDPTFGGGTKVEIK	7.44
ADI-34138 (antibody, V domains shown, anti-ID IgG) VH: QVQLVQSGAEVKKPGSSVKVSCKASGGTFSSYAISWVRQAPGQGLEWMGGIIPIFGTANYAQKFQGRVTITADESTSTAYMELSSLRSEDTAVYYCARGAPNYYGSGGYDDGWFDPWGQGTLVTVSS VL: EIVMTQSPGTLSLSPGERATLSCRASQSVSSSYLAWYQQKPGQAPRLLIYGASNRATGIPDRFSGSGSGTDFTLTISRLEPEDFAVYYCQQAHTALWTFGGGTKVEIK	7.54
ADI-34137 (antibody, V domains shown, anti-ID IgG) VH: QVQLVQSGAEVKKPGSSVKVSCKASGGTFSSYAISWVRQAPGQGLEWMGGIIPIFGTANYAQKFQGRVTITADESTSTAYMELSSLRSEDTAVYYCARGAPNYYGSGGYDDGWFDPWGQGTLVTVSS VL: EIVLTQSPGTLSLSPGERATLSCRASQSVSSSYLAWYQQKPGQAPRLLIYGASSRATGIPDRFSGSGSGTDFTLTISRLEPEDFAVYYCQQFGRFPTFGGGTKVEIK	9.12

Next binder, pKd to be filled in.
Asked: Output pKd of ADI-34135 (antibody, V domains shown, anti-ID IgG) VH: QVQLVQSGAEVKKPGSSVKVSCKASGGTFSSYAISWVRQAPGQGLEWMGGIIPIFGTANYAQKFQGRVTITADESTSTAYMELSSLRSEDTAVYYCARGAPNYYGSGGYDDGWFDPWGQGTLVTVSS VL: EIVMTQSPGTLSLSPGERATLSCRASQSVSSSYLAWYQQKPGQAPRLLIYGASSRATGIPDRFSGSGSGTDFTLTISRLEPEDFAVYYCQQFGRYPTFGGGTKVEIK
Given back: 9.08
